Where do the numbers come from? From PubChem BioAssay (NCI).

Tested on: HL-60(TB) leukemia
Experiment: NCI-60 one-dose screen, 48 h
Conditions: 10 µM unless noted
Protocol: Growth inhibition of the HL-60(TB) human tumor cell line is measured as a screen for anti-cancer activity. Cells are grown in 96 well plates and exposed to the test compound for 48 hours. Compounds are tested at a single concentration, which is 10^-5 M for most compounds. The reported endpoint is percent growth (GI% or GIPRCNT), where numbers from 0 - 100% represent growth inhibition, and numbers from -100% - 0 represent cell death. For example, a value of 40 represents 60% growth inhibition. […]
This is part of a sample that, as a whole, favours compounds with a hit. Of some 83,000 tested, about 20% had one in any assay. Active and inactive are the calls of the source. How the source made its calls: active means growth percent below 10; inactive means the rest.
Outcome (select one): class 1 = active, class 0 = inactive

O=S(=O)(NCCNc1nccc(-c2c(-c3cccc(F)c3)nc3occn23)n1)c1ccc(Br)cc1 : class 0
OCC1OC(n2cnc3c(N/N=C\c4ccccn4)ncnc32)C(O)C1O (centres undefined) : class 1
Cn1c2ccccc2c2c3c(c4c5cc(Br)ccc5n(C)c4c21)C(=O)N(O)C3=O : class 1

Continue with the next compound.
Query string: Please indicate how the test categorized "O=c1c2c3c(sc2nc(N/N=C/c2cn(-c4ccccc4)nc2-c2ccc(Cl)cc2)n1Cc1ccccc1)CCCC3" .
Result string: class 1
